- System: Toxoplasma gondii RH-2F tachyzoites
- ASSAY METHOD TEXT: microbe, parasite or virus in culture
- REPORTED CONDITIONS: 72 h, read-out: Parasite inhibition (%) mean, preliminary screen of compound library, mean
Counter-ions that a name gives are not always drawn.
Listed compounds paired with reported inhibition of growth at 5 µM
The reply should be a number in %, with the unit left off.

Below are worked cases with known answers.
COMPOUND	inhibition of growth at 5 µM, %
N[C@@H](Cc1ccc(O)c(O)c1)C(=O)O [Levodopa (Sinemet)]	12.1
CC(=O)Nc1cccc(-n2c(=O)n(C3CC3)c(=O)c3c(Nc4ccc(I)cc4F)n(C)c(=O)c(C)c32)c1	-8.7
Oc1ccc([C@H]2COc3cc(O)ccc3C2)cc1	-5.6

# input For the compound C[C@@H](C(=O)O)c1ccc(-c2ccccc2)c(F)c1 , give its reported inhibition of growth at 5 µM.
# output -23.7

# input For the compound Cc1cncc(CN2CCC(=C3c4ccc(Cl)cc4CCc4cccnc43)CC2)c1 [Rupatadine Fumarate] , give its reported inhibition of growth at 5 µM.
# output 0.2

# input For the compound O=C(O)[C@]1(Cc2cccc(Nc3nccs3)n2)CC[C@@H](Oc2cccc(Cl)c2F)CC1 , give its reported inhibition of growth at 5 µM.
# output 60.4

# input For the compound CC1(COc2ccc3c(c2)ncn3-c2ccc3cccc(N4CCC(N)CC4)c3n2)COC1 , give its reported inhibition of growth at 5 µM.
# output 0.2

# input For the compound Cn1c(=O)cc(N2CCC[C@@H](N)C2)n(Cc2ccccc2C#N)c1=O [Alogliptin (SYR-322)] , give its reported inhibition of growth at 5 µM.
# output 44.1
